# Test system: M. tuberculosis H37Rv growth inhibition, 7H9 media
# protocol: M. tuberculosis growth inhibition, HTS (AID 449762);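 note: bacterial growth assessed after seven days of incubation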
# test context: measured here: IC90 growth inhibition
Results filed as inconclusive are left out.
// classify: if (IC90 < 30 µM) condition met else condition not met

Record excerpt, results attached:
In [3]: df
Out[3]:
                                   molecule     discrete_label
0     Cc1ccc2nc(-c3ccncc3)cc(-c3ccccc3)c2c1  condition not met
1  Cn1ccnc1C(=O)C1CCCN(Cc2cn[nH]c2-c2ccc(-c3ccccc3)cc2)C1 (configuration not stated)  condition not met
2      CN1CC=C(/C=C/c2ccc(-c3ccccc3)cc2)CC1      condition met
3       Cc1cc(C(=O)CCl)c(C)n1CCc1ccc(Cl)cc1      condition met
4  CC1CN(C(=S)SCC(=O)c2ccc([N+](=O)[O-])cc2)CC(C)O1 (configuration not stated)  condition not met
5  O=[N+]([O-])c1cn(-c2nc(-c3ccco3)cc(C(F)(F)F)n2)cn1      condition met
6  CCN1CCN(CCCNC(=O)c2ccc(/C=C3/Oc4ccccc4N(Cc4cccc(C)c4)C3=O)cc2)CC1  condition not met
7  COC(=O)c1cccc(C#CC(NP(=O)(c2ccccc2)c2ccccc2)c2ccccc2)c1 (configuration not stated)  condition not met

Say whether its IC90 is strictly beneath 30 µM. Entry: C=C1C(=O)O[C@@H]2C[C@@H](C)[C@@H]3C4OC4C(=O)[C@@]3(C)[C@@H](O)[C@H]12 (some centres not stated)
condition met

Threshold test, IC90 < 30 µM: S=C(NN=C1CCN(Cc2ccccc2)CC1)NC1CCCCC1
condition met

A record lists Cc1nnc(SCc2ccccc2Cl)n(N)c1=O . Is its IC90 below 30 µM?
condition met

Quick check: does CCOC(=O)c1ccc(NC(=O)C(C)Sc2nc(O)c(-c3ccccc3)c(=O)[nH]2)cc1 (configuration not stated) have IC90 under 30 µM?
condition met

A record lists COc1ccc(-c2nnc(NC(=O)c3ccc([N+](=O)[O-])o3)o2)c(OC)c1 . Is its IC90 below 30 µM?
condition met
